assay: Intestinal S9 Assay (human GI S9); type: in vitro ADME; conditions: human, 1.0 mg/mL S9 protein, TRIS pH 7.4, read-out: Human GI S9 T½
MEASUREMENT_LABEL: half-life at 2 μM (h)
Report as a plain number; the unit h is understood.

Consider the following illustrative entries.
{"COMPOUND": "COC(=O)N[C@H](C(=O)N[C@@H](Cc1ccc(C#Cc2cnc(N3CC4CCC(C3)N4C3COC3)nc2)cc1)[C@H](CN(Cc1c(F)cc(-c2ccn(C(F)F)n2)cc1F)NC(=O)[C@@H](NC(=O)OC)C(C)(C)C(F)(F)F)OC(=O)CC(C)(C)c1c(CC(=O)N[C@@H](CCS(=O)(=O)O)C(=O)O)cc(C)cc1OP(=O)(O)O)C(C)(C)C(F)(F)F", "half-life at 2 μM [h]": 3.72}
{"COMPOUND": "COC(=O)N[C@H](C(=O)N[C@@H](Cc1ccc(C#Cc2cnc(N3CC4CCC(C3)N4C3COC3)nc2)cc1)[C@H](CN(Cc1c(F)cc(-c2ccn(C(F)F)n2)cc1F)NC(=O)[C@@H](NC(=O)OC)C(C)(C)C(F)(F)F)OC(=O)CC(C)(C)c1c(CC(=O)NCC(=O)NS(C)(=O)=O)cc(C)cc1OP(=O)(O)O)C(C)(C)C(F)(F)F", "half-life at 2 μM [h]": 2.46}
{"COMPOUND": "COC(=O)N[C@H](C(=O)N[C@@H](Cc1ccc(C#Cc2cnc(N3CC4CCC(C3)N4C3COC3)nc2)cc1)[C@H](CN(Cc1c(F)cc(-c2ccn(C(F)F)n2)cc1F)NC(=O)[C@@H](NC(=O)OC)C(C)(C)C(F)(F)F)OC(=O)CC(C)(C)c1c(CC(=O)NCc2ccc(C#N)cc2)cc(C)cc1OP(=O)(O)O)C(C)(C)C(F)(F)F", "half-life at 2 μM [h]": 7.98}
{"COMPOUND": "COC(=O)N[C@H](C(=O)N[C@@H](Cc1ccc(C#Cc2cnc(N3CC4CCC(C3)N4C3COC3)nc2)cc1)[C@H](CN(Cc1c(F)cc(-c2ccn(C(F)F)n2)cc1F)NC(=O)[C@@H](NC(=O)OC)C(C)(C)C(F)(F)F)OC(=O)CC(C)(C)c1c(C)cc(C(=O)O)cc1OP(=O)(O)O)C(C)(C)C(F)(F)F", "half-life at 2 μM [h]": 1.98}
{"COMPOUND": "COC(=O)N[C@H](C(=O)N[C@@H](Cc1ccc(C#Cc2cnc(N3CC4CCC(C3)N4C3COC3)nc2)cc1)[C@H](CN(Cc1c(F)cc(-c2ccn(C(F)F)n2)cc1F)NC(=O)[C@@H](NC(=O)OC)C(C)(C)C(F)(F)F)OC(=O)CC(C)(C)c1c(CC(=O)NC23CC(C(=O)O)(C2)C3)cc(C)cc1OP(=O)(O)O)C(C)(C)C(F)(F)F", "half-life at 2 μM [h]": 7.82}
{"COMPOUND": "COC(=O)N[C@H](C(=O)N[C@@H](Cc1ccc(C#Cc2cnc(N3CC4CCC(C3)N4C3COC3)nc2)cc1)[C@H](CN(Cc1c(F)cc(-c2ccn(C(F)F)n2)cc1F)NC(=O)[C@@H](NC(=O)OC)C(C)(C)C(F)(F)F)OC(=O)CC(C)(C)c1c(CC(=O)N[C@]2(C(=O)O)CCOC2)cc(C)cc1OP(=O)(O)O)C(C)(C)C(F)(F)F", "half-life at 2 μM [h]": 4.11}

What value of half-life at 2 μM has been recorded for this entry: COC(=O)N[C@H](C(=O)N[C@@H](Cc1ccc(C#Cc2cnc(N3CC4CCC(C3)N4C3COC3)nc2)cc1)[C@H](CN(Cc1c(F)cc(-c2ccn(C(F)F)n2)cc1F)NC(=O)[C@@H](NC(=O)OC)C(C)(C)C(F)(F)F)OC(=O)CC(C)(C)c1c(CC(=O)N2CC[C@@H](C(=O)O)C2)cc(C)cc1OP(=O)(O)O)C(C)(C)C(F)(F)F
9.55

What value of half-life at 2 μM has been recorded for this entry: COC(=O)N[C@H](C(=O)N[C@@H](Cc1ccc(C#Cc2cnc(N3CC4CCC(C3)N4C3COC3)nc2)cc1)[C@H](CN(Cc1c(F)cc(-c2ccn(C(F)F)n2)cc1F)NC(=O)[C@@H](NC(=O)OC)C(C)(C)C(F)(F)F)OC(=O)CC(C)(C)c1c(CC(=O)NC(CCP(=O)(O)O)C(=O)O)cc(C)cc1OP(=O)(O)O)C(C)(C)C(F)(F)F (some centres unmarked)
3.21
